Listed here: compounds with reported pIC50 for Tau in human Alzheimer disease brain homogenate (Homo sapiens).
pIC50: −log10 of the molar value.
measure: pIC50

[[record]]
compound = "Fc1ccc(-c2ccc3c(c2)[nH]c2ccncc23)cn1 [F-1, reference compound]"
observed_value = "> 8.70"

[[record]]
compound = "[18F]c1ccc(-c2ccc3c(c2)[nH]c2ccncc23)cn1 [^18F-1, reference compound]"
observed_value = "> 8.70"

[[record]]
compound = "Fc1cc(-c2ccc3c(c2)[nH]c2ccncc23)ccn1 [F-2]"
observed_value = "> 8.70"

[[record]]
compound = "[18F]c1cc(-c2ccc3c(c2)[nH]c2ccncc23)ccn1 [^18F-2]"
observed_value = "> 8.70"

[[record]]
compound = "[18F]c1cc(-c2cc3[nH]c4ccncc4c3s2)ccn1 [^18F-3]"
observed_value = 7.87


###

Property: IC50; scope: individual compounds
Biological target: aggregated recombinant human K18 fibrils (Homo sapiens, UniProt P10636)
Construct: aggregated recombinant human K18 fibrils
Sequence (P10636 561-685 limits assumed): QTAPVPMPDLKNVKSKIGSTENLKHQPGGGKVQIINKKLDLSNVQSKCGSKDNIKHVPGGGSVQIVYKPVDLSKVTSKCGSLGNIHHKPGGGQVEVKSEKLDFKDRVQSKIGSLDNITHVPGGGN
Assay: Binding affinity to K18 Tau aggregates (3H-labeled Tau binder competition)
Conditions: non-radioactive fluorine-19 derivatives; read-out: IC50 using K18 Tau aggregates
measure: IC50

[[record]]
compound = "[18F]c1ccc(-c2ccc3c(c2)[nH]c2ccncc23)cn1 [^18F-1, reference compound]"
observed_value = "0.0196 µM"

[[record]]
compound = "[18F]c1cc(-c2ccc3c(c2)[nH]c2ccncc23)ccn1 [^18F-2]"
observed_value = "0.003 µM"


###

Molecular target: MAO-A (Mus musculus, UniProt Q64133)
Construct: 20 μg of mouse whole brain or human brain homogenate
Sequence (Q64133 whole entry): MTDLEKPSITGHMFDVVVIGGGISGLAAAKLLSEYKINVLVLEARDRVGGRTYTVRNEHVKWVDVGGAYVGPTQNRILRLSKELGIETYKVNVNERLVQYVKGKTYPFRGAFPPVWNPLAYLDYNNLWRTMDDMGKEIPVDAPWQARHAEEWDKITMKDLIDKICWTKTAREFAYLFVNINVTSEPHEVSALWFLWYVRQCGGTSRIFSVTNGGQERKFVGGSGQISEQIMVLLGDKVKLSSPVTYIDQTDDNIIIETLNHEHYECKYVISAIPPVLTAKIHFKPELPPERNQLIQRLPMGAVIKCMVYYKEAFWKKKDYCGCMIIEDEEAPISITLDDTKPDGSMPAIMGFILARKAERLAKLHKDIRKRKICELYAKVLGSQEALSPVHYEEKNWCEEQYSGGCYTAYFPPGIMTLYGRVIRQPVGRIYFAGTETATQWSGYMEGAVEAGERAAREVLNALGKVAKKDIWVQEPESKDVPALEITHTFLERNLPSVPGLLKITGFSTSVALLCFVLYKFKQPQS
Assay: Binding affinity to MAO-A in mouse whole brain homogenate (3H-Harmine competition)
Conditions: mouse brain homogenate; 3H-Harmine competition
measure: IC50 (nM)

[[record]]
compound = "[18F]c1cc(-c2cc3[nH]c4ccncc4c3s2)ccn1 [^18F-3]"
measure = "IC50"
rel = ">"
observed_value = 1000

[[record]]
compound = "[18F]c1ccc(-c2ccc3c(c2)[nH]c2ccncc23)cn1 [^18F-1, reference compound]"
measure = "IC50"
rel = "="
observed_value = 4.6

[[record]]
compound = "Fc1cc(-c2ccc3c(c2)[nH]c2ccncc23)ccn1 [F-2]"
measure = "IC50"
rel = "="
observed_value = 51.4

[[record]]
compound = "Fc1ccc(-c2ccc3c(c2)[nH]c2ccncc23)cn1 [F-1, reference compound]"
measure = "IC50"
rel = "="
observed_value = 4.6

[[record]]
compound = "[18F]c1cc(-c2ccc3c(c2)[nH]c2ccncc23)ccn1 [^18F-2]"
measure = "IC50"
rel = "="
observed_value = 51.4


###

Target: MAO-B (Homo sapiens, UniProt P27338)
Construct: 20 μg of human brain homogenate (without AD pathology)
Sequence (P27338 whole entry): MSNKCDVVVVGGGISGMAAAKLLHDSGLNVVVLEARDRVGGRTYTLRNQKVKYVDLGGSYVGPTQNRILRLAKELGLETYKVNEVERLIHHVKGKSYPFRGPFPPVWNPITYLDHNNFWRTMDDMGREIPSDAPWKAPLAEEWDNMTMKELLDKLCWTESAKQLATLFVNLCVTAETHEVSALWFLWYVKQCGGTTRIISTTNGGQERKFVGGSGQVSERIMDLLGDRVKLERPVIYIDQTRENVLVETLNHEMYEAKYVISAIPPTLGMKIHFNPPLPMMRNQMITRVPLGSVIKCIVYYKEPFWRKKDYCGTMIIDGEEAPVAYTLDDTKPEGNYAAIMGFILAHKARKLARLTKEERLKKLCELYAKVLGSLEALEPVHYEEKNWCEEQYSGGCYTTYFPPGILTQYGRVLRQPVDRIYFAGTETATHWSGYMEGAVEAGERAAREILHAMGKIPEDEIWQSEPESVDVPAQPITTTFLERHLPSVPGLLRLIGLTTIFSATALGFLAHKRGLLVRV
Assay: Binding affinity to MAO-B in human HC brain homogenate (3H-deprenyl competition)
Settings: human HC brain homogenate; 3H-deprenyl competition
pIC50: −log10 of the molar value.
measure: pIC50

[[record]]
compound = "[18F]c1ccc(-c2ccc3c(c2)[nH]c2ccncc23)cn1 [^18F-1, reference compound]"
system_name = "MAO-B (Homo sapiens, UniProt P27338)"
observed_value = 7.11

[[record]]
compound = "[18F]c1cc(-c2ccc3c(c2)[nH]c2ccncc23)ccn1 [^18F-2]"
system_name = "MAO-B (Homo sapiens, UniProt P27338)"
observed_value = 6.11

[[record]]
compound = "Fc1cc(-c2ccc3c(c2)[nH]c2ccncc23)ccn1"
system_name = "MAO-B (Homo sapiens, UniProt P27338)"
observed_value = 6.11

[[record]]
compound = "Fc1ccc(-c2ccc3c(c2)[nH]c2ccncc23)cn1 [F-1, reference compound]"
system_name = "MAO-B (Homo sapiens, UniProt P27338)"
observed_value = 7.11


Cited source for all entries: patent US11306089B2
